Test system: CD2F1 mice, L1210 leukemia ip, survival T/C
PROTOCOL_SUMMARY: NCI In Vivo Anticancer Drug Screen. Data for tumor model L1210 Leukemia (intraperitoneal) in CD2F1 (CDF1) mice
CONDITION_LABEL: endpoint: mean survival time; dose: 50.0 mg/kg/injection; schedule: Q04DX003 (ip); vehicle: saline; higher = longer survival
Toxic doses and inconclusive results are not listed.
For each of the molecules below, state its T/C.

molecule="C1CCC(CCC2CCCC[N-]2)[N-]C1.C1CCC(CCC2CCCC[N-]2)[N-]C1.[Ni+2].[O-][Cl+3]([O-])([O-])O (stereo not given)" measurement_target="CD2F1 mice, L1210 leukemia ip, survival T/C" result="102 % of control"
molecule=CC(C)=NC(=O)NO.[Cl][Co][Cl] measurement_target="CD2F1 mice, L1210 leukemia ip, survival T/C" result="109 % of control"

Batch request: T/C for each of the following molecules.
1. COc1cc([N+](=O)[O-])ccc1P(=O)(O)O
2. S=C([SH2+])[SH2+].S=C([SH2+])[SH2+].[Pt+2].c1ccc(C[P+](c2ccccc2)(c2ccccc2)c2ccccc2)cc1
3. OCCN1CCN(CCCN2c3ccccc3Sc3ccc(Cl)cc32)CC1

["101 % of control", "94 % of control", "110 % of control"]

====

For each of the compounds below, state its T/C.
System: CD2F1 mice, L1210 leukemia ip, survival T/C
PROTOCOL_SUMMARY: NCI In Vivo Anticancer Drug Screen. Data for tumor model L1210 Leukemia (intraperitoneal) in CD2F1 (CDF1) mice
CONDITION_LABEL: endpoint: mean survival time; dose: 50.0 mg/kg/injection; schedule: Q01DX009 (ip); vehicle: water; higher = longer survival
Toxic doses and inconclusive results are not listed.

Here is how some compounds turned out for T/C.
compound="OCC#CCOCC(O)CCl (configuration not stated)" measurement_target="CD2F1 mice, L1210 leukemia ip, survival T/C" result="98 % of control"
compound="O=C(NCCI)NC1C(O)OC(CO)C(O)C1O (configuration not stated)" measurement_target="CD2F1 mice, L1210 leukemia ip, survival T/C" result="93 % of control"
compound=COc1cccc(/C=C/C(=O)O)c1OC measurement_target="CD2F1 mice, L1210 leukemia ip, survival T/C" result="88 % of control"
compound="CCOC(=O)C1C(=O)N(c2ccccc2)C(=O)N1C (configuration not stated)" measurement_target="CD2F1 mice, L1210 leukemia ip, survival T/C" result="94 % of control"
compound="COc1ccc(OC)c(CC(CC(=O)O)C(C)=O)c1 (configuration not stated)" measurement_target="CD2F1 mice, L1210 leukemia ip, survival T/C" result="96 % of control"
compound="OCC1OC(n2ncc3c2N=CN2CCN=C32)C(O)C1O (configuration not stated)" measurement_target="CD2F1 mice, L1210 leukemia ip, survival T/C" result="102 % of control"
compound="CC1(C)CC(O)(Cc2ccccc2)C(=O)c2ccccc21 (configuration not stated)" measurement_target="CD2F1 mice, L1210 leukemia ip, survival T/C" result="92 % of control"
compound="COC1c2cc3ccccc3nc2-c2ccccc2C1(C)C (configuration not stated)" measurement_target="CD2F1 mice, L1210 leukemia ip, survival T/C" result="91 % of control"
compound=N#Cc1cccc(CN2CCCNCC2)c1 measurement_target="CD2F1 mice, L1210 leukemia ip, survival T/C" result="96 % of control"
compound=COc1cc2cc[n+](C)cc2cc1OC measurement_target="CD2F1 mice, L1210 leukemia ip, survival T/C" result="103 % of control"

Batch request: T/C for each of the following compounds.
1. O=C1CC(=O)NC(=O)C1
2. COc1ccc(C2NCCc3cc(OC)c(OC)cc32)cc1OC (configuration not stated)

1. 94 % of control
2. 98 % of control
